Target: UniProt P30542
Sequence (P30542 whole entry): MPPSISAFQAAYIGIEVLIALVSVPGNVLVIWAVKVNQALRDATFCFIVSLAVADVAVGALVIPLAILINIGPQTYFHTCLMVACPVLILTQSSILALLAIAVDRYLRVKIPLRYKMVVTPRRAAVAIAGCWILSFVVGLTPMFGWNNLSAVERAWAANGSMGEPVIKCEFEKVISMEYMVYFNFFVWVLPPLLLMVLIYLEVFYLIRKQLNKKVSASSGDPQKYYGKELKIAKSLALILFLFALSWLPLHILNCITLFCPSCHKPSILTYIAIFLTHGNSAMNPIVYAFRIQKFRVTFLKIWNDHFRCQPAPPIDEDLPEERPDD
Experiment: Antagonistic activity at adenosine A1 receptor
Threshold check on Ki: strictly below 70 nM is Satisfied; on or above 70 nM is Not satisfied.

Example entries and their recorded answers appear below.
input: Record Nc1nc(-c2ccccc2)c2c(n1)-c1cc(OCCN3CCOCC3)ccc1C2=O : is its Ki strictly below 70 nM?
output: Satisfied

input: is_below(Ki, 70 nM) for CC(C)N(CCOc1ccc2c(c1)-c1nc(N)nc(-c3ccc(F)cc3)c1C2=O)C(C)C ?
output: Not satisfied

input: Threshold test, Ki < 70 nM: Nc1nc(-c2ccc(F)cc2)c2c(n1)-c1cc(OCCN3CCCC3)ccc1C2=O
output: Not satisfied

input: Just wondering, is Ki of CCN(CC)CCOc1ccc2c(c1)-c1nc(N)nc(-c3ccc(F)cc3)c1C2=O below 70 nM?
output: Not satisfied

input: Lab log: compare recorded Ki with 70 nM; is it strictly lower for CN(C)CCOc1ccc2c(c1)-c1nc(N)nc(-c3ccc(F)cc3)c1C2=O ?
output: Satisfied

Continuing:
input: Please check: Ki for CCN1CCN(C(=O)c2ccc3c(c2)-c2nc(N)nc(-c4ccccc4)c2C3=O)CC1 , strictly under 70 nM or not?
output: Satisfied

input: Decide: Ki of CCN1CCN(C(=O)c2ccc3c(c2)-c2nc(N)nc(-c4ccc(F)cc4)c2C3=O)CC1 strictly below 70 nM?
output: Not satisfied

input: Hi there! Is Ki for CC(C)N1CCC(NC(=O)c2ccc3c(c2)-c2nc(N)nc(-c4ccccc4)c2C3=O)CC1 below 70 nM, do you know?
output: Not satisfied

input: Please determine if CN1CCCN(c2ccc3c(c2)-c2nc(N)nc(-c4ccccc4)c2C3=O)CC1 is below 70 nM in terms of Ki.
output: Not satisfied
